Reference source: patent US20240287079A1

- Target: UniProt:Q96P20
- Procedure Summary: Evaluation of NLRP3 inflammasome inhibitory activity (inhibition of IL-1β production in LPS/Nigericin-stimulated THP1-Null cells)
- Experimental Setup: IL-1β production in THP1-Null cells, PMA, LPS 1 μg/mL, Nigericin 7.5 μmol/L, AlphaLISA
fulfilled if IC50 is below 40 nM. not fulfilled if not; exact matches included in not fulfilled.

Example entries begin here.
- Cc1cc(Br)cc(C)c1-n1cc2c(=O)[nH]c(N3C[C@H]4C[C@@H]3CO4)nc2n1: fulfilled
- Cc1cc(C2CC2)ccc1-n1cc2c(=O)[nH]c(N3CCCC3)nc2n1: fulfilled
- COC[C@@H]1CCCN1c1nc2nn(-c3ccccc3C)cc2c(=O)[nH]1: not fulfilled
- Cc1cc(Cl)cc(C=O)c1-n1cc2c(=O)[nH]c(N3CCOCC3)nc2n1: fulfilled
- Cc1cc(C(F)F)cc(C)c1-n1cc2c(=O)[nH]c(N3CCOCC3)nc2n1: not fulfilled
- CNc1nc2nn(-c3ccc(C)cc3C)cc2c(=O)[nH]1: not fulfilled
- COC(c1cc(Br)ccc1-n1cc2c(=O)[nH]c(N3C[C@H]4C[C@@H]3CO4)nc2n1)C1CC1 (some centres unmarked): not fulfilled
- COC1CN(c2nc3nn(-c4c(C)cccc4C)cc3c(=O)[nH]2)C1: not fulfilled
- CS(=O)(=O)N1CCCN(c2nc3nn(-c4ccc(C(F)(F)F)cc4Cl)cc3c(=O)[nH]2)CC1: not fulfilled
- Cc1cc(Br)cc(C)c1-n1cc2c(=O)n(C)c(N3CC4CC(C3)O4)nc2n1: not fulfilled

I wonder whether `Cc1cc(Br)cc(Cl)c1-n1cc2c(=O)[nH]c(N3CC4CC(C3)O4)nc2n1` has IC50 below 40 nM. Can you tell?
fulfilled

Is IC50 of `CC(C)c1cc(C(F)(F)F)cnc1-n1cc2c(=O)[nH]c(N3CCOCC3)nc2n1` strictly below 40 nM?
not fulfilled

Item `Cc1ccc(-n2cc3c(=O)[nH]c(N4CCCC4)nc3n2)c(C)c1` : IC50 beneath 40 nM, strictly?
not fulfilled

Field: below-cutoff. Rule: recorded IC50 strictly less than 40 nM. Subject: `Cc1cc(Br)cc(C)c1-n1cc2c(=O)[nH]c(NCC3CC3)nc2n1`
fulfilled

Hello, is IC50 of the following molecule strictly smaller than 40 nM? `Cc1cc(Br)cc(C)c1-n1cc2c(=O)[nH]c(N3C4CC3CN(S(C)(=O)=O)C4)nc2n1`
fulfilled

Below 40 nM on IC50? Entry `Cc1cc(C(F)(F)F)cc(C)c1-n1cc2c(=O)[nH]c(N3C[C@@H]4C[C@H]3CO4)nc2n1`
fulfilled

I'd appreciate it if you could check whether `Cc1cc(C(F)(F)F)cnc1-n1cc2c(=O)[nH]c(N3CC(F)(F)C3)nc2n1` has IC50 smaller than 40 nM.
not fulfilled

---

pIC50: recorded values
- Target: NLRP3 inflammasome (Homo sapiens (Human), UniProt Q96P20)
- Sequence (Q96P20 whole entry): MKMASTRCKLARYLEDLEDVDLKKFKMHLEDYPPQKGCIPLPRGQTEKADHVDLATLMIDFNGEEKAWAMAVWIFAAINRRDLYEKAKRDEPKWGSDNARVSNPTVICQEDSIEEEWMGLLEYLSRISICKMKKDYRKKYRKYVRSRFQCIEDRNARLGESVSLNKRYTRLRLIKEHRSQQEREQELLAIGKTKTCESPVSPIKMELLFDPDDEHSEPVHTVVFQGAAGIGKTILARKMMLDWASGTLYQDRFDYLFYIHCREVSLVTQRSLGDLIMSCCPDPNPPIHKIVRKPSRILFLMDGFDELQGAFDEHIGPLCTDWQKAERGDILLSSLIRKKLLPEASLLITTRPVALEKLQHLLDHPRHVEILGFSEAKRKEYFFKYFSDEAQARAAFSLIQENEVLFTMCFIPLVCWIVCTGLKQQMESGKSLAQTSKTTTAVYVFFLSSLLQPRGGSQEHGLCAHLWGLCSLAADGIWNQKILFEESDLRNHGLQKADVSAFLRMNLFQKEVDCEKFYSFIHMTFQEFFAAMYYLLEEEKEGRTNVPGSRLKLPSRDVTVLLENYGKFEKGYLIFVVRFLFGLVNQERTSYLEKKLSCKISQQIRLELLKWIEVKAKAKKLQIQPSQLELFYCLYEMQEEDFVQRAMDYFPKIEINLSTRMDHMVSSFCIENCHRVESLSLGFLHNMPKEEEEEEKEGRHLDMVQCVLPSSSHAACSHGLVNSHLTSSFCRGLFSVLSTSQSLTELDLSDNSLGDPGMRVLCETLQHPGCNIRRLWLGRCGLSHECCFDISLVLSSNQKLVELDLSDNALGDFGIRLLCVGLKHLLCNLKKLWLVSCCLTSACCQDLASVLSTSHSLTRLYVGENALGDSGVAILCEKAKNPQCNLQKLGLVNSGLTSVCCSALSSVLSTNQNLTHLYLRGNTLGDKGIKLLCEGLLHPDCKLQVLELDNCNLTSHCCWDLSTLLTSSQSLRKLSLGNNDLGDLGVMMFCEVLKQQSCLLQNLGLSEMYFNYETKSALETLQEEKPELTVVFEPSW
- Procedure Summary: Evaluation of NLRP3 inflammasome inhibitory activity (inhibition of IL-1β production in LPS/Nigericin-stimulated THP1-Null cells)
- Experimental Setup: IL-1β production in THP1-Null cells, PMA, LPS 1 μg/mL, Nigericin 7.5 μmol/L, AlphaLISA
// scale note: pIC50 = -log10(conc_M); give the bare number

Field: example entries. Status: answers known.
• Cc1ccccc1-n1cc2c(=O)[nH]c(N3CC(F)(F)C3)nc2n1 = 6.33
• CC(=O)NC1CCN(c2nc3nn(-c4c(C)cc(C)cc4C)cc3c(=O)[nH]2)C1 (racemic) = 7.25
• Cc1cc(Br)cc(C)c1-n1cc2c(=O)[nH]c(N3CC4(CC(O)C4)C3)nc2n1 = 8.17
• Cc1cc(Br)cc(C)c1-n1cc2c(=O)[nH]c(N3CCCOCC3)nc2n1 = 7.92
• Cc1nn(C2CCC2)c(C)c1-n1cc2c(=O)[nH]c(N3CCCC3)nc2n1 = 6.19
• CN(C)c1nc2nn(-c3ccccc3Cl)cc2c(=O)[nH]1 = 5.77

Endpoint output: pIC50 of `Cc1cc(C)c(-n2cc3c(=O)[nH]c(N4CCCC4)nc3n2)c(C)c1` . Value?
7.77

Entry under review: `Cc1cc(C2CC2)cc(C(F)(F)F)c1-n1cc2c(=O)[nH]c(N3CCOCC3)nc2n1` . Reported pIC50?
7.89

Entry under review: `O=c1[nH]c(N2CCOCC2)nc2nn(-c3ccc(C4CC4)cc3C(F)F)cc12` . Reported pIC50?
7.66

---

- Target: NLRP3 inflammasome (Homo sapiens (Human), UniProt Q96P20)
- Procedure Summary: Evaluation of NLRP3 inflammasome inhibitory activity (inhibition of IL-1β production in LPS/Nigericin-stimulated THP1-Null cells)
- Experimental Setup: IL-1β production in THP1-Null cells, PMA, LPS 1 μg/mL, Nigericin 7.5 μmol/L, AlphaLISA
Classify: Satisfied when IC50 is strictly less than 20 nM; Not satisfied when IC50 is not.

Is IC50 of CC(C)Oc1cc(Br)ccc1-n1cc2c(=O)[nH]c(N3CCOCC3)nc2n1 [Example 303] strictly below 20 nM?
Not satisfied

Hello, I'm reviewing records and need to know if IC50 of O=c1[nH]c(N2CCCC2)nc2nn(-c3ccccc3Cl)cc12 [Example 1] is below 20 nM. Could you check?
Not satisfied

Does the reported IC50 of the following molecule sit strictly below 20 nM? Cc1cc(Br)cc(C)c1-n1cc2c(=O)[nH]c(N3CC4CC(C3)N4S(C)(=O)=O)nc2n1 [Example 222]
Satisfied

For Cc1cc(Br)cc(C(F)(F)F)c1-n1cc2c(=O)[nH]c(N3CCOCC3)nc2n1 [Example 174] , is the recorded IC50 below the cut-off of 20 nM?
Satisfied

Hello, is IC50 of the following molecule strictly smaller than 20 nM? O=c1[nH]c(N2CCOCC2)nc2nn(-c3ccc(Br)cc3C(F)(F)F)cc12 [Example 241]
Satisfied

In plain terms, does Cc1cc(C2CC2)cc(C)c1-n1cc2c(=O)[nH]c(N3CCC(C#N)C3)nc2n1 (racemic) [Example 324] come in under 20 nM for IC50?
Satisfied

Is the reported IC50 for COCc1cc(Cl)ccc1-n1cc2c(=O)[nH]c(N3CCCC3)nc2n1 [Example 144] strictly below 20 nM?
Not satisfied

Identify whether the molecule O=c1[nH]c(N2CCOCC2)nc2nn(-c3ccc(Cl)cc3CC3CC3)cc12 [Example 320] records IC50 below 20 nM.
Not satisfied

Say whether its IC50 is strictly beneath 20 nM. Entry: Cc1cc(Br)cc(C)c1-n1cc2c(=O)[nH]c(N3C[C@@H]4C[C@H]3CO4)nc2n1 [Example 195]
Satisfied

Hi there! Is IC50 for Cc1nn(C(C)C)c(C)c1-n1cc2c(=O)[nH]c(N3CCCC3)nc2n1 [Example 343] below 20 nM, do you know?
Not satisfied

Lab note: confirm whether the reported IC50 for this molecule is below 20 nM, equality not counting. molecule: Cc1cc(C2(C(F)(F)F)CC2)cc(C)c1-n1cc2c(=O)[nH]c(N3CCOCC3)nc2n1 [Example 276]
Not satisfied

A record lists Cc1cc(C(F)(F)F)ncc1-n1cc2c(=O)[nH]c(N3CC(F)(F)C3)nc2n1 [Example 99] . Is its IC50 below 20 nM?
Not satisfied

Decide: IC50 of COCc1cc(Br)ccc1-n1cc2c(=O)[nH]c(N3CCOCC3)nc2n1 [Example 268] strictly below 20 nM?
Not satisfied

Consider CC(C)c1ccccc1-n1cc2c(=O)[nH]c(N3CCCC3)nc2n1 [Example 31] . Does its IC50 lie strictly below 20 nM?
Not satisfied

Just wondering, is IC50 of O=c1[nH]c(N2CCOCC2)nc2nn(-c3c(F)cc(C4CC4)cc3C(F)(F)F)cc12 [Example 273] below 20 nM?
Satisfied

Answer whether the molecule O=c1[nH]c(N2CCOCCO2)nc2nn(-c3ccc(Br)cc3C(F)(F)F)cc12 [Example 355] has IC50 strictly less than 20 nM
Not satisfied

Strictly below 20 nM in IC50? O=c1[nH]c(N2CCOCC2)nc2nn(-c3c(Cl)cc(C(F)(F)F)cc3OCC3CC3)cc12 [Example 190]
Not satisfied

---

- Target: NLRP3 inflammasome (Homo sapiens (Human))
- Procedure Summary: Evaluation of NLRP3 inflammasome inhibitory activity (inhibition of IL-1β production in LPS/Nigericin-stimulated THP1-Null cells)
- Experimental Setup: IL-1β production in THP1-Null cells, PMA, LPS 1 μg/mL, Nigericin 7.5 μmol/L, AlphaLISA
Endpoint Label: IC50 (nM)
Field: numeric (nM). Do not append units.

* C=C(c1cc(C)c(-n2cc3c(=O)[nH]c(N4CCOCC4)nc3n2)c(C)c1)C(F)(F)F [Example 293] | 290
* COCc1cc(Cl)ccc1-n1cc2c(=O)[nH]c(N3CCOCC3)nc2n1 [Example 143] | 59
* Cc1cc(C(F)(F)F)ncc1-n1cc2c(=O)[nH]c(N3CCOCC3)nc2n1 [Example 98] | 54

--- query ---
Suppose we examine the compound O=c1[nH]c(N2CCCC2)nc2nn(-c3ncc(C(F)(F)F)cc3Cl)cc12 [Example 157] ; what IC50 value has been reported?
33
